Reference source: patent US20170247366A1

# test.target: rat mGluR5 (Rattus norvegicus, UniProt P31424)
# Sequence (P31424 21-1203): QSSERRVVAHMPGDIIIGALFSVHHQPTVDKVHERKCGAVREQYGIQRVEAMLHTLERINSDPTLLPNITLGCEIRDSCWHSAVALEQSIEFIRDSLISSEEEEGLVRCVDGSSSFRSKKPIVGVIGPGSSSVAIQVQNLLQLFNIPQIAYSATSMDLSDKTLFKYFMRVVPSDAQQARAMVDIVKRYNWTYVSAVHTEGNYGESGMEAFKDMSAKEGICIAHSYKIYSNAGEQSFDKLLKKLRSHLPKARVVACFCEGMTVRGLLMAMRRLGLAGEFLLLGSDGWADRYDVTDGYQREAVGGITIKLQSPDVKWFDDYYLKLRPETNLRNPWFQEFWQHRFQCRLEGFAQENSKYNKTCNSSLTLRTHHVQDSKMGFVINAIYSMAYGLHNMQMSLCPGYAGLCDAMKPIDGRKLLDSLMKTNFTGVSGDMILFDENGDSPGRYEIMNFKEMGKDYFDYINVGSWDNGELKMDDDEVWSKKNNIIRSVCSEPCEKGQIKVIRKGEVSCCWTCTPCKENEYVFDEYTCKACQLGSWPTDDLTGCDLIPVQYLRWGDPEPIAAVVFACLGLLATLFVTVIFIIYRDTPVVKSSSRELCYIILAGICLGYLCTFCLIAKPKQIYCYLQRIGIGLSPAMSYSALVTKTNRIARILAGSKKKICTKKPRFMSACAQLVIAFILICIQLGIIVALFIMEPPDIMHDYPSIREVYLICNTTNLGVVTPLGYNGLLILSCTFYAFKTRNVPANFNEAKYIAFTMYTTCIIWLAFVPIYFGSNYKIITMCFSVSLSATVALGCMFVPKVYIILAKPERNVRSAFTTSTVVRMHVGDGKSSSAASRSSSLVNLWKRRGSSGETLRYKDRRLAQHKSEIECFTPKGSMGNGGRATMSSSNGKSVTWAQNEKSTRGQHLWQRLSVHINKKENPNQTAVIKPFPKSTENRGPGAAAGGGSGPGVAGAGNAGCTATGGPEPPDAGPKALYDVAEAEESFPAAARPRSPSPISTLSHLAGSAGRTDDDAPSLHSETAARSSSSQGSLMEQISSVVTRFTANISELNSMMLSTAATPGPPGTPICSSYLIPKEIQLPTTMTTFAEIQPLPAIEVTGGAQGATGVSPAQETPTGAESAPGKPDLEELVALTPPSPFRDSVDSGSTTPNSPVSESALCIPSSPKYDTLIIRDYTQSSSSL
# method: mGluR5 calcium flux assay in HEK 293A cells, negative allosteric modulation of glutamate EC80 response
# measurement.setup: HEK cells transfected with rat mGluR5; glutamate EC80; ± is standard error of at least three experiments
assay.endpoint: IC50 (nM)

Example results:
- Cc1cc(OC2CCOCC2)cc(C(=O)Nc2ccccn2)n1: 1560
- Cc1cc(O[C@H]2CO[C@H](C)C2)cc(C(=O)Nc2nc(C)cs2)n1: 81
- Cc1cc(OC[C@H]2CCOC2)cc(C(=O)Nc2ccccn2)n1: 972
- Cc1ccc(NC(=O)c2cc(OC3COC3)cc(C)n2)nc1: 1480
- Cc1cc(OCC2CCOCC2)cc(C(=O)Nc2ccccn2)n1: 1460

I. COCCOc1cc(C)nc(C(=O)Nc2ccc(F)cn2)c1
II. Cc1cc(OC2CCCOC2)cc(C(=O)Nc2ccccn2)n1 (stereo not drawn)
III. CC(=O)N1CC(Oc2cc(C)nc(C(=O)Nc3ccc(F)cn3)c2)C1
IV. Cc1cc(OCC2CCCO2)cc(C(=O)Nc2ccc(F)cn2)n1 (stereo not drawn)
V. CO[C@H](C)COc1cc(C)nc(C(=O)Nc2nc(C)cs2)c1
Order each entry by recorded IC50, climbing from the minimum. The labels, placed in the requested order, form the answer.
V, II, I, III, IV

A. COC[C@@H](C)Oc1cc(C)nc(C(=O)Nc2nc(C)cs2)c1
B. Cc1cc(OCC2CCOC2)cc(C(=O)Nc2ccc(F)cn2)n1 (stereo not drawn)
Lab log: flag the item ( A or B ) with the smaller IC50 figure. Mark your selection by writing its label.
B

A. Cc1cc(OCC2COC2)cc(C(=O)Nc2ccc(F)cn2)n1
B. COC[C@H](C)Oc1cc(C)nc(C(=O)Nc2ccccn2)c1
When A and B are compared, which has the higher number for IC50? Mark your selection by writing its label.
A
(A: 4300 nM, B: 2720 nM)

###

# test.target: rat mGluR5 (Rattus norvegicus)
# method: mGluR5 calcium flux assay in HEK 293A cells, negative allosteric modulation of glutamate EC80 response
# measurement.setup: HEK cells transfected with rat mGluR5; glutamate EC80; ± is standard error of at least three experiments
pIC50: −log10 of the molar value.
assay.endpoint: pIC50

Example results:
• CO[C@@H](C)COc1cc(C)nc(C(=O)Nc2ccc(F)cn2)c1 = 5.31
• Cc1cc(OCC2CCCCO2)cc(C(=O)Nc2ccccn2)n1 (centres unmarked) = 5.53
• Cc1cc(O[C@@H]2CCCOC2)cc(C(=O)Nc2ccc(F)cn2)n1 = 6.45
• Cc1cc(O[C@H]2CO[C@H](C)C2)cc(C(=O)Nc2nc(CF)cs2)n1 = 6.74

A. Cc1cc(OCC2CCOC2)cc(C(=O)Nc2ccccn2)n1 (centres unmarked)
B. Cc1cc(OC2CN(C(=O)OC(C)C)C2)cc(C(=O)Nc2nc(C)cs2)n1
When A and B are compared, which has the higher number for pIC50? Mark your selection by writing its label.
A
(A: 6.68, B: 5.60)

P. Cc1cc(OC2CCSC2)cc(C(=O)Nc2ccc(F)cn2)n1 (centres unmarked)
Q. COc1ccc(NC(=O)c2cc(OC3COC3)cc(C)n2)nc1
When P and Q are compared, which has the higher number for pIC50? Mark your selection by writing its label.
P

I. Cc1cc(OC2COC2)cc(C(=O)Nc2ccccn2)n1
II. Cc1cc(OCC2CCCCO2)cc(C(=O)Nc2nc(C)cs2)n1 (centres unmarked)
When I and II are compared, which has the higher number for pIC50? Mark your selection by writing its label.
I

###

# test.target: UniProt:P31424
# method: mGluR5 calcium flux assay in HEK 293A cells, negative allosteric modulation of glutamate EC80 response
# measurement.setup: HEK cells transfected with rat mGluR5; glutamate EC80; ± is standard error of at least three experiments
# Description: HEK 293A cells stably expressing either rat or human mGluR5 were plated in black-walled, clear-bottomed, poly-D-lysine coated 384-well plates in 20 μL of assay medium (DMEM containing 10% dialyzed FBS, 20 mM HEPES, 100 units/mL penicillin/streptomycin plus 250 ng/mL Fungizone, and 1 mM sodium pyruvate) at a density of 20K cells/well. The cells were grown overnight at 37° C. in the presence of 5% CO2. […] Ca^2+ flux was measured using the Functional Drug Screening System (FDSS7000, Hamamatsu, Japan). […]
assay.endpoint: IC50 (nM)

Example results:
• CCCCOC(=O)N1CC(Oc2cc(C)nc(C(=O)Nc3ccc(F)cn3)c2)C1 = 11200
• CCC(=O)N1CC(Oc2cc(C)nc(C(=O)Nc3nc(C)cs3)c2)C1 = 611
• Cc1cc(OC2CCC2)cc(C(=O)Nc2nc(C)cs2)n1 = 59
• Cc1cc(OC[C@@H]2CCOC2)cc(C(=O)Nc2nc(C)cs2)n1 = 151
• Cc1cc(O[C@H]2CCOC2)cc(C(=O)Nc2ccc(F)cn2)n1 = 685
• Cc1cc(OC2(C)COC2)cc(C(=O)Nc2ccc(F)cn2)n1 = 863
• Cc1cc(OC2CN(C(=O)OC(C)C)C2)cc(C(=O)Nc2ccc(F)cn2)n1 = 4100

P. Cc1cc(OCC2COCCO2)cc(C(=O)Nc2ccc(F)cn2)n1 (centres unmarked)
Q. Cc1cc(OC2C[S+]([O-])C2)cc(C(=O)Nc2ccc(F)cn2)n1 (centres unmarked)
R. Cc1cc(OC2COC2)cc(C(=O)Nc2ccc(Cl)cn2)n1
S. Cc1cc(O[C@@H]2CCOC2)cc(C(=O)Nc2nc(C(F)F)cs2)n1
Put the items in sequence by IC50, from largest down. The labels, placed in the requested order, form the answer.
P, R, Q, S
(P: 7680 nM, R: 1530 nM, Q: 533 nM, S: 247 nM)

###

# test.target: rat mGluR5 (Rattus norvegicus)
# Construct: expressed in transfected cells
# method: mGluR5 calcium flux assay in HEK 293A cells, negative allosteric modulation of glutamate EC80 response
# Format: cell-based
# measurement.setup: rat mGluR5; average Glu Max at 30 μM; CRC does not hit a plateau
assay.endpoint: % Glu Max at single concentration (%)

* Cc1cc(OC2CN(C(=O)N(C)C)C2)cc(C(=O)Nc2nc(C)cs2)n1 | 31
* Cc1cc(OC2CN(S(=O)(=O)CC(C)C)C2)cc(C(=O)Nc2nc(C)cs2)n1 | 59
* CCS(=O)(=O)N1CC(Oc2cc(C)nc(C(=O)Nc3ccc(F)cn3)c2)C1 | 62
* Cc1cc(OC2CN(C(=O)N(C)C)C2)cc(C(=O)Nc2ccc(F)cn2)n1 | 69

1. CCCS(=O)(=O)N1CC(Oc2cc(C)nc(C(=O)Nc3ccc(F)cn3)c2)C1
2. CCCOC(=O)N1CC(Oc2cc(C)nc(C(=O)Nc3ccc(F)cn3)c2)C1
When 1 and 2 are compared, which has the higher number for % Glu Max at single concentration? Mark your selection by writing its label.
1
(1: 53%, 2: 37%)

###

# test.target: rat mGluR5 (Rattus norvegicus)
# method: mGluR5 calcium flux assay in HEK 293A cells, negative allosteric modulation of glutamate EC80 response
# measurement.setup: HEK cells transfected with rat mGluR5; glutamate EC80; ± is standard error of at least three experiments
pIC50: −log10 of the molar value.
assay.endpoint: pIC50

Example results:
• CO[C@H](C)COc1cc(C)nc(C(=O)Nc2ccc(F)cn2)c1 = 6.14
• COCCOCCOc1cc(C)nc(C(=O)Nc2ccccn2)c1 = 5.60
• CCCS(=O)(=O)N1CC(Oc2cc(C)nc(C(=O)Nc3nc(C)cs3)c2)C1 = 6.10
• Cc1cc(OC2CCCCC2)cc(C(=O)Nc2ccc(F)cn2)n1 = 5.47
• Cc1cc(OC2CC3(COC3)C2)cc(C(=O)Nc2nc(C)cs2)n1 = 6.36

A. Cc1cc(O[C@H]2CCCOC2)cc(C(=O)Nc2ccc(F)cn2)n1
B. Cc1cc(OC2CCSC2)cc(C(=O)Nc2nc(C)cs2)n1 (centres unmarked)
Lab log: flag the item ( A or B ) with the smaller pIC50 figure. Mark your selection by writing its label.
A

###

# test.target: rat mGluR5 (Rattus norvegicus, UniProt P31424)
# method: mGluR5 calcium flux assay in HEK 293A cells, negative allosteric modulation of glutamate EC80 response
# measurement.setup: HEK cells transfected with rat mGluR5; glutamate EC80; ± is standard error of at least three experiments
assay.endpoint: IC50 (nM)

Example results:
- Cc1cc(OCC2CCO2)cc(C(=O)Nc2nc(C)cs2)n1 (stereo not drawn): 399
- Cc1cc(OC2CCOCC2)cc(C(=O)Nc2nc(C)cs2)n1: 446

I. Cc1cc(OC2COC2)cc(C(=O)Nc2cccc(Cl)n2)n1
II. COCCCOc1cc(C)nc(C(=O)Nc2nc(C)cs2)c1
III. Cc1cc(OC2COC2)cc(C(=O)Nc2nc(C)cs2)n1
Order each entry by recorded IC50, climbing from the minimum. The labels, placed in the requested order, form the answer.
III, I, II
